Test system: Klebsiella pneumoniae A
Assay: In vitro MIC, Broth Dilution Method
Format: cell-based
Conditions: Broth Dilution Method; Klebsiella pneumoniae A; read-out: In Vitro MIC
Structures can show the parent of a compound that is named as a salt.
Listed below: MIC values for each entry.
The reply must contain the numeric value and, after it, the unit.

The following compounds have reported results that may help.
Compound	MIC
CCn1cc(C(=O)O)c(=O)c2cc(F)c(N3CCN(C=N[C@@H]4C(=O)N5C(C(=O)O)=C(COC(C)=O)CS[C@H]45)CC3)cc21 [Compound I, monosodium salt]	0.125 µg/mL
CCn1cc(C(=O)O)c(=O)c2cc(F)c(N3CCN(C=N[C@@H]4C(=O)N5C(C(=O)O)=C(CSc6nc(=O)c(=O)[nH]n6C)CS[C@H]45)CC3)cc21 [Compound J, disodium salt]	0.5 µg/mL
CCn1cc(C(=O)O)c(=O)c2cc(F)c(N3CCN(C=N[C@@H]4C(=O)N5[C@@H]4SC(C)(C)[C@@H]5C(=O)O)CC3)cc21 [Compound B, monosodium salt]	0.125 µg/mL
CCn1cc(C(=O)O)c(=O)c2cc(F)c(N3CCN(C=N[C@@H]4C(=O)N5C(C(=O)O)=C(C)CS[C@H]45)CC3)cc21 [Compound C, disodium salt]	0.125 µg/mL

MIC of CCn1cc(C(=O)O)c(=O)c2cc(F)c(N3CCCN(C=N[C@@H]4C(=O)N5[C@@H]4SC(C)(C)[C@@H]5C(=O)O)CC3)cc21 [Compound G, disodium salt] on Klebsiella pneumoniae A?
2 µg/mL
